# Tested on: HOP-62
# assay-notes: NCI tumour cell line growth inhibition, 48 h
The source made the active and inactive calls. Cut-off read from the data, not from the text of the source: active = GI50 up to about 1.1 µM and inactive = higher.
Outcome codes: active, inactive

[[record]]
compound = "O=C(O)CCC(=O)Nc1ccc2ccccc2c1"
assayed_system = "HOP-62"
assigned_category = "inactive"

[[record]]
compound = "OC[C@H]1O[C@@H](n2cnc3c(S)ncnc32)[C@H](O)[C@@H]1O"
assayed_system = "HOP-62"
assigned_category = "inactive"

[[record]]
compound = "CC(=O)Oc1c(C)c2c(O)c3c1C1=C(OCOC1=C(C)C3=O)/C(C)=C/C(C)(O)C(O)C(C)C(O)C1C(=O)OC(C(C)C1O)C(C)(O)/C=C\\C=C(C)C(=O)N2 (configuration not stated)"
assayed_system = "HOP-62"
assigned_category = "inactive"

[[record]]
compound = "Cn1c(S)nnc1-c1csc(-c2ccc(Cl)cc2)n1"
assayed_system = "HOP-62"
assigned_category = "inactive"

[[record]]
compound = "Cc1c(C#N)c(=N)oc2ccccc12"
assayed_system = "HOP-62"
assigned_category = "inactive"

[[record]]
compound = "COc1cccc(NC(=S)Nn2c(C)nc3ccccc3c2=O)c1"
assayed_system = "HOP-62"
assigned_category = "inactive"

[[record]]
compound = "O=C(NC1CCCCCC1)C1C(=O)N(C2CCCCCC2)C(=O)/C1=N\\O (configuration not stated)"
assayed_system = "HOP-62"
assigned_category = "inactive"

[[record]]
compound = "COc1cc2cc(C(=O)N3CC(CCl)c4c3cc(N)c3ccccc43)[nH]c2c(OC)c1OC (configuration not stated)"
assayed_system = "HOP-62"
assigned_category = "active"

[[record]]
compound = "COc1ccccc1N1C(=O)CC(=O)N(C(=O)CCCCCCCCC(=O)N2C(=O)CC(=O)N(c3ccccc3OC)C2=S)C1=S"
assayed_system = "HOP-62"
assigned_category = "inactive"

[[record]]
compound = "COC(=O)c1cc2c(c3c1CC(Cc1ccccc1)C3=O)CCC2 (configuration not stated)"
assayed_system = "HOP-62"
assigned_category = "inactive"

[[record]]
compound = "COC(=O)C1=C(OC(=O)/C(=C/c2ccccc2)c2ccc([N+](=O)[O-])cc2)C(C(=O)OC)[C@@]2(O)[C@@H](C(=O)OC)[C@H](C)C[C@@H]1[C@@H]2C(=O)OC (some centres not stated)"
assayed_system = "HOP-62"
assigned_category = "inactive"

[[record]]
compound = "C[Si](C)(C)/C=C/CN1C(=O)CCC1O (configuration not stated)"
assayed_system = "HOP-62"
assigned_category = "inactive"

[[record]]
compound = "CCN(CC)C(=O)C(C)n1cc(C)c(=O)[nH]c1=O (configuration not stated)"
assayed_system = "HOP-62"
assigned_category = "inactive"

[[record]]
compound = "C#CC1(O)CCC2[C@@H]3CCc4cc(Oc5nc(F)nc(-c6c7ccccc7c(SCC)n6CCC)n5)ccc4C3CC[C@@]21C (some centres not stated)"
assayed_system = "HOP-62"
assigned_category = "inactive"

[[record]]
compound = "COC(=O)c1c2c(cc3c1CC1(Cc4ccc(C(C)=O)cc4C1)C3)CCC2 (configuration not stated)"
assayed_system = "HOP-62"
assigned_category = "inactive"

[[record]]
compound = "CCOC(=O)C(CC(C)C)NC(=O)C(N)Cc1ccc(N(CCCl)CCCl)cc1 (configuration not stated)"
assayed_system = "HOP-62"
assigned_category = "inactive"

[[record]]
compound = "O=P1(C(O)/C=C/c2ccccc2)N(Cc2ccccc2)[C@H](c2ccccc2)[C@@H](c2ccccc2)N1Cc1ccccc1 (some centres not stated)"
assayed_system = "HOP-62"
assigned_category = "inactive"

[[record]]
compound = "CCSc1nc(COC(=O)NC)c(COC(=O)NC)n1C"
assayed_system = "HOP-62"
assigned_category = "inactive"

[[record]]
compound = "NCP(=O)(O)OCC(=O)O"
assayed_system = "HOP-62"
assigned_category = "inactive"

[[record]]
compound = "Cc1ccc(S[C@@](C=O)(NC(=O)OCc2ccccc2)C(F)(F)F)cc1"
assayed_system = "HOP-62"
assigned_category = "inactive"

[[record]]
compound = "COc1cc(/N=N/c2cccc(S(N)(=O)=O)c2)c2ccccc2c1N"
assayed_system = "HOP-62"
assigned_category = "inactive"

[[record]]
compound = "Fc1cccc(C2SCc3nc4cc5ccccc5cc4n32)c1 (configuration not stated)"
assayed_system = "HOP-62"
assigned_category = "inactive"

[[record]]
compound = "CCn1c2c(c3ccccc31)C(c1ccccc1)CC1C(=O)N(c3ccccc3)C(=O)C21 (configuration not stated)"
assayed_system = "HOP-62"
assigned_category = "inactive"

[[record]]
compound = "NC(=S)SC1=NC(=O)C2(NN1)c1ccccc1-c1ccccc12"
assayed_system = "HOP-62"
assigned_category = "inactive"

[[record]]
compound = "O=C(NCCCNCCCNC(=O)c1cc(-c2ccccc2)nc2ccccc12)c1cc(-c2ccccc2)nc2ccccc12"
assayed_system = "HOP-62"
assigned_category = "active"

[[record]]
compound = "C1C2CC3CC1CC(Nc1nc(NC45CC6CC(CC(C6)C4)C5)nc(NC45CC6CC(CC(C6)C4)C5)n1)(C2)C3"
assayed_system = "HOP-62"
assigned_category = "inactive"

[[record]]
compound = "CCOC(=O)c1c(-c2ccc(OC)c(O)c2)c(C#N)c(=S)n(C2OC(CO)C(O)C(O)C2O)c1-c1ccccc1 (configuration not stated)"
assayed_system = "HOP-62"
assigned_category = "inactive"

